Where do these numbers come from? They come from patent US20250281451A1.

SYSTEM_NAME: Orx2 (Homo sapiens, UniProt O43614)
Construct: DiscoverX
TEST_METHOD_NOTES: Orx2 antagonist screening, chemiluminescent cell assay with Orexin B EC80
Assay type: cell-based
RUN_PARAMETERS: absolute percent agonism at the μM concentration of the relative OR2 IC50
Protocol: For this example, the following protocol was used: 1.) seed cells in 20 μL Cell Plating Reagent; 2.) incubate cells overnight at 37° C. and 5% CO2; 3.) treat cells with 2.5 μL 10× antagonist prepared in Compound Dilution Buffer (For OR2 screening, 2.5 μL of 1:100 natural product sample in DiscoverX cell plating reagent. […]
Label f if % Agonism Orx2 at Relative IC50 falls below 50%; label t in every other case.

Does O=C(CCc1ccc(O)cc1)c1ccc(O)cc1OC1OC(CO)C(O)C(O)C1O (stereo not shown) have a reported % Agonism Orx2 at Relative IC50 of at least 50%?
t

Does O=C(O)[C@H]1O[C@@H](Oc2c(-c3ccc(O)cc3)oc3cc(O)cc(O)c3c2=O)[C@H](O)[C@@H](O)[C@@H]1O have a reported % Agonism Orx2 at Relative IC50 of at least 50%?
f

Does COc1ccc(C(=O)CCc2ccc(O)cc2)c(O)c1 have a reported % Agonism Orx2 at Relative IC50 of at least 50%?
t

Does C[C@@H]1O[C@@H](OC[C@H]2O[C@@H](Oc3c(-c4ccc(O)c(O)c4)oc4cc(O)cc(O)c4c3=O)[C@H](O)[C@@H](O)[C@@H]2O)[C@H](O)[C@H](O)[C@H]1O have a reported % Agonism Orx2 at Relative IC50 of at least 50%?
t

Does O=c1c(O[C@@H]2O[C@@H](CO)[C@H](O)[C@H]2O)c(-c2ccc(O)cc2)oc2cc(O)cc(O)c12 have a reported % Agonism Orx2 at Relative IC50 of at least 50%?
f

* * *

SYSTEM_NAME: Orx2 (Homo sapiens, UniProt O43614)
Construct: DiscoverX
TEST_METHOD_NOTES: Orx2 antagonist screening, chemiluminescent cell assay with Orexin B EC80
Assay type: cell-based
RUN_PARAMETERS: concentration of the fraction of the plant source, in fold dilution, needed to achieve IC50 of OR2
Answer each item with its documented IC50 Dilution of Orx2 (fold dilution).
The reply must contain the numeric value and, after it, the unit.

// assay Orx2 (Homo sapiens, UniProt O43614), entry O=c1cc(-c2ccc(O)c(O)c2)oc2cc(O)cc(O)c12 [Compound 13] , IC50 Dilution of Orx2 (fold dilution) value = 2283.9 fold dilution

// assay Orx2 (Homo sapiens, UniProt O43614), entry O=c1c(O)c(-c2ccc(O)cc2)oc2cc(O)cc(O)c12 [Compound 12] , IC50 Dilution of Orx2 (fold dilution) value = 7039.1 fold dilution

// assay Orx2 (Homo sapiens, UniProt O43614), entry COc1c(O)cc2oc(-c3ccc(O)cc3)c(OC)c(=O)c2c1O [Compound 14] , IC50 Dilution of Orx2 (fold dilution) value = 3466.5 fold dilution

// assay Orx2 (Homo sapiens, UniProt O43614), entry C[C@@H]1O[C@@H](OC[C@H]2O[C@@H](Oc3c(-c4ccc(O)c(O)c4)oc4cc(O)cc(O)c4c3=O)[C@H](O)[C@@H](O)[C@@H]2O)[C@H](O)[C@H](O)[C@H]1O [Compound 15] , IC50 Dilution of Orx2 (fold dilution) value = 2283.9 fold dilution

* * *

SYSTEM_NAME: Orx2 (Homo sapiens, UniProt O43614)
Construct: DiscoverX
TEST_METHOD_NOTES: Orx2 antagonist screening, chemiluminescent cell assay with Orexin B EC80
RUN_PARAMETERS: antagonist mode against Orexin B EC80; read-out: Relative IC50 of Orx2
ENDPOINT_NAME: IC50 (µM)
# unit: µM | format: bare number

The measured IC50 associated with COc1c(O)cc2oc(-c3ccc(O)cc3)c(OC)c(=O)c2c1O reads 89

The measured IC50 associated with C[C@@H]1O[C@@H](OC[C@H]2O[C@@H](Oc3c(-c4ccc(O)c(O)c4)oc4cc(O)cc(O)c4c3=O)[C@H](O)[C@@H](O)[C@@H]2O)[C@H](O)[C@H](O)[C@H]1O reads 79.1

The measured IC50 associated with O=C(O)[C@H]1O[C@@H](Oc2c(-c3ccc(O)cc3)oc3cc(O)cc(O)c3c2=O)[C@H](O)[C@@H](O)[C@@H]1O reads 146

The measured IC50 associated with O=c1c(O)c(-c2ccc(O)cc2)oc2cc(O)cc(O)c12 reads 53.3

The measured IC50 associated with O=c1c(O[C@@H]2OC[C@H](O)[C@H](O)[C@H]2O)c(-c2ccc(O)cc2)oc2cc(O)cc(O)c12 reads 179

The measured IC50 associated with C[C@@H]1O[C@@H](O[C@H]2[C@H](Oc3c(-c4ccc(O)cc4)oc4cc(O)cc(O)c4c3=O)O[C@H](CO)[C@@H](O)[C@@H]2O)[C@H](O)[C@H](O)[C@H]1O reads 174

* * *

SYSTEM_NAME: Orx2 (Homo sapiens, UniProt O43614)
Construct: DiscoverX
TEST_METHOD_NOTES: Orx2 antagonist screening, chemiluminescent cell assay with Orexin B EC80
Assay type: cell-based
RUN_PARAMETERS: concentration of the fraction of the plant source, in fold dilution, needed to achieve IC50 of OR2
ENDPOINT_NAME: IC50 Dilution of Orx2 (fold dilution)
# unit: fold dilution | format: bare number

// assay Orx2 (Homo sapiens, UniProt O43614), entry COc1ccc(C(=O)CCc2ccc(O)cc2)c(O)c1 , IC50 Dilution of Orx2 (fold dilution) value = 5786.9

// assay Orx2 (Homo sapiens, UniProt O43614), entry O=C(CCc1ccc(O)cc1)c1ccc(O)cc1OC1OC(CO)C(O)C(O)C1O (stereo not drawn) , IC50 Dilution of Orx2 (fold dilution) value = 5786.9

// assay Orx2 (Homo sapiens, UniProt O43614), entry O=C(CCc1ccc(O)cc1)c1ccc(OC2OC(CO)C(O)C(O)C2O)cc1O (stereo not drawn) , IC50 Dilution of Orx2 (fold dilution) value = 5786.9

* * *

Answer each item with its documented % Agonism Orx2 at Relative IC50.
SYSTEM_NAME: Orx2 (Homo sapiens)
Construct: DiscoverX
Sequence (O43614 1-444): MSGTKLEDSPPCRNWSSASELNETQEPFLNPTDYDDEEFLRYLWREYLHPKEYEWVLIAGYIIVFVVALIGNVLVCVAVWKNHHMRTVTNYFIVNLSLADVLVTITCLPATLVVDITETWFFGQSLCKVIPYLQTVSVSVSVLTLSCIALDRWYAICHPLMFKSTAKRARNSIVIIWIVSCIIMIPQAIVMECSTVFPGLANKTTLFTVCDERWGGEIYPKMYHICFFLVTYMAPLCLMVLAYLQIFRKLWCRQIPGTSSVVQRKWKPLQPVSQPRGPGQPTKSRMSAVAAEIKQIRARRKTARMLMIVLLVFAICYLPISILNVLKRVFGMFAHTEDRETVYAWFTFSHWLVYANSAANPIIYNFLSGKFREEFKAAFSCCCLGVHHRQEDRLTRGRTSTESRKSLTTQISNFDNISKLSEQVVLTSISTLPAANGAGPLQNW
TEST_METHOD_NOTES: Orx2 antagonist screening, chemiluminescent cell assay with Orexin B EC80
Type: cell-based
RUN_PARAMETERS: absolute percent agonism at the μM concentration of the relative OR2 IC50

// assay Orx2 (Homo sapiens), entry O=c1c(O)c(-c2ccc(O)cc2)oc2cc(O)cc(O)c12 [Compound 12] , % Agonism Orx2 at Relative IC50 value = 65%

// assay Orx2 (Homo sapiens), entry Cc1cc(O)c2c(c1)C(=O)c1cc(O)cc(O[C@@H]3O[C@H](CO)[C@@H](O)[C@H](O)[C@H]3O)c1C2=O [Compound 30] , % Agonism Orx2 at Relative IC50 value = 50%

// assay Orx2 (Homo sapiens), entry COc1cc(-c2oc3c(OC)c(O[C@@H]4O[C@H](COC(C)=O)[C@@H](O)[C@H](O)[C@H]4O[C@@H]4O[C@@H](C)[C@H](O)[C@@H](O)[C@H]4O)cc(O)c3c(=O)c2O)ccc1O [Compound 25] , % Agonism Orx2 at Relative IC50 value = 50%

// assay Orx2 (Homo sapiens), entry COc1c(O)cc2oc(-c3ccc(O)cc3)c(OC)c(=O)c2c1O [Compound 14] , % Agonism Orx2 at Relative IC50 value = 50%

// assay Orx2 (Homo sapiens), entry O=c1c(O[C@@H]2OC[C@H](O)[C@H](O)[C@H]2O)c(-c2ccc(O)cc2)oc2cc(O)cc(O)c12 [Compound 26] , % Agonism Orx2 at Relative IC50 value = 40%

* * *

Answer each item with its documented pIC50.
SYSTEM_NAME: Orx2 (Homo sapiens)
Construct: DiscoverX
TEST_METHOD_NOTES: Orx2 antagonist screening, chemiluminescent cell assay with Orexin B EC80
RUN_PARAMETERS: antagonist mode against Orexin B EC80; read-out: Relative IC50 of Orx2
Just the number, please; pIC50 means minus log10 of the concentration in mol/L.

The measured pIC50 associated with COc1cc(-c2oc3c(OC)c(O[C@@H]4O[C@H](COC(C)=O)[C@@H](O)[C@H](O)[C@H]4O[C@@H]4O[C@@H](C)[C@H](O)[C@@H](O)[C@H]4O)cc(O)c3c(=O)c2O)ccc1O reads 3.83

The measured pIC50 associated with CC1O[C@@H](OC2C(O)[C@H](Oc3c(-c4ccc(O)cc4)oc4cc(O)cc(O)c4c3=O)OC(CO)[C@H]2O)[C@@H](O)C(O)[C@H]1O (stereo partly drawn) reads 3.72

The measured pIC50 associated with O=c1c(O[C@@H]2O[C@@H](CO)[C@H](O)[C@H]2O)c(-c2ccc(O)cc2)oc2cc(O)cc(O)c12 reads 3.81

The measured pIC50 associated with COc1c(O)cc2oc(-c3ccc(O[C@@H]4O[C@H](C(=O)O)[C@@H](O)[C@H](O)[C@H]4O)c(O)c3)c(OC)c(=O)c2c1O reads 3.81

The measured pIC50 associated with O=C(CCc1ccc(O)cc1)c1ccc(O)cc1OC1OC(CO)C(O)C(O)C1O (stereo not drawn) reads 3.73

The measured pIC50 associated with Cc1cc(O)c2c(c1)C(=O)c1cc(O)cc(O[C@@H]3O[C@H](CO)[C@@H](O)[C@H](O)[C@H]3O)c1C2=O reads 4.09
